Applied Conditions: buffer; pH 7.4; 200.0 µM
# solubility kinetic per record follows
Readout Label: solubility kinetic

Molecule	Test Value
Cc1ccc2cc(N)ccc2n1	> 23.7 µg/mL
Cc1ccccc1C(N)c1ccncc1.Cl (stereo unspecified)	> 40.7 µg/mL
Cc1ccc2sc(N(CCN(C)C)C(=O)/C=C/c3cccs3)nc2c1C.Cl	< 0.3 µg/mL
Cc1ccc2c(=O)[nH]c(Nc3nc(C)cc(-c4ccccc4)n3)nc2c1	< 0.1 µg/mL
CN(C(=O)CSc1nnc(-c2ccc(Cl)cc2)n1C)C1CCS(=O)(=O)C1 (stereo unspecified)	> 62.2 µg/mL
OCCN(CCO)c1nc2ccccc2[nH]1	> 33.2 µg/mL
O=C(CCNC(=O)c1ccco1)NCCc1c[nH]c2ccccc12	33.1 µg/mL
CCCCOC(=O)c1ccc(OC(=O)N2CCOCC2)cc1	> 46.1 µg/mL
O=C(CNS(=O)(=O)Cc1ccccc1)NCc1ccccc1	12.9 µg/mL
COc1cccc(C(=O)OCC(=O)NCCC2=CCCCC2)c1	25.8 µg/mL
O=[N+]([O-])c1ccc(N2CCCCC2)nc1	29.2 µg/mL
Cc1cc(Cl)ccc1NS(=O)(=O)c1c(C)[nH]c(=O)[nH]c1=O	> 49.5 µg/mL
CCCc1ccc(C(=O)O/N=C(\N)c2ccccn2)cc1	3.1 µg/mL
Cc1cccc(Nc2nc(N)nc(CCl)n2)c1	> 37.5 µg/mL
Cc1c(C(=O)NCC(c2ccco2)N2CCCC2)sc2ccccc12 (stereo unspecified)	> 53.2 µg/mL
COc1ccccc1NS(=O)(=O)c1cc(NC(=O)c2ccc(Cl)nc2)ccc1N1CCCC1	2.1 µg/mL
FC(F)(F)c1cccc(-n2cc(-c3ccccc3)[nH]c2=S)c1	< 0.3 µg/mL
CC1CCCCN1C(=O)CSc1nc(C2CC2)nc2ccccc12 (stereo unspecified)	> 51.2 µg/mL
O=C1C=C(Nc2ccc(F)cc2)c2ccccc2C1=O	< 0.6 µg/mL
COc1ccccc1C1NC(=O)c2ccccc2O1 (stereo unspecified)	> 38.3 µg/mL
CCOC(=O)c1cc(CC)sc1NC(=O)COC(=O)C1CCC1	< 0.7 µg/mL
O=C(NCCc1ccc(Cl)cc1Cl)c1ccc2nc[nH]c2c1	33.2 µg/mL
CC(C)c1ccc(N2C(=O)CC(=O)NC2=O)cc1	34.4 µg/mL
CCCC(=O)NC(=S)Nc1cc(-c2nc3ncccc3o2)ccc1C	0.5 µg/mL
CC(=O)NC1CC2CCCC(C1)N2Cc1ccc(C)cc1 (stereo unspecified)	> 43 µg/mL
C=CCNC(=O)COc1ccc(S(=O)(=O)N2CCCC2)cc1	> 48.7 µg/mL
Cc1cc(C)cc(NC(=O)Cn2cc(C=O)c3ccccc32)c1	< 0.3 µg/mL
NC(=O)c1ccsc1NC(=O)COC(=O)/C=C/c1ccccc1[N+](=O)[O-]	4.3 µg/mL
O=C(COC(=O)CCC(=O)c1ccc(F)cc1)NCc1ccccc1Cl	> 56.7 µg/mL
COCCCNC(=O)[C@H]1N2C(=O)c3ccccc3C2SC1(C)C (stereo partly specified)	45.4 µg/mL
Cc1ccc(CNC(=O)C2CCC(=O)N(C3CC3)C2)cc1 (stereo unspecified)	> 43 µg/mL
CCCSc1nsc(NC(=O)c2cccnc2OCC)n1	0.5 µg/mL
c1ccc2c(c1)CCc1ccccc1C2=C1CCNCC1	30.7 µg/mL
O=C(c1ccco1)N1CCC(N2CCN(c3ccccc3)CC2)CC1	43.8 µg/mL
NNC(=O)c1ccc(N2CCCCCC2)c([N+](=O)[O-])c1	> 41.7 µg/mL
CCNC(=O)CC1C(=O)N(CC)C(=S)N1NC(=O)c1cccnc1 (stereo unspecified)	> 52.4 µg/mL
CC1CN(C(=O)c2ccc(NS(=O)(=O)c3ccc(F)cc3)cc2)CC(C)O1 (stereo unspecified)	> 58.9 µg/mL
O=C(Nc1cccnc1)c1cc2c(s1)-c1ccccc1OC2	0.8 µg/mL
CCN1CCCC1CNC(=O)c1cc2cc(F)ccc2[nH]1 (stereo unspecified)	> 43.4 µg/mL
O=C(CN1CCN(Cc2ccccc2)CC1)Nc1cccc(Cl)c1	> 51.6 µg/mL
CC(=O)c1cccc(NC(=S)N2CCCC2)c1	> 37.3 µg/mL

----------
Applied Conditions: buffer; pH 7.4; 200.0 µM
Readout Label: log10(solubility kinetic) (log10 of the value in µg/mL)

Molecule	log10(solubility kinetic)
COc1ccc2cc(C(=O)N3CCN(c4ccccc4OC)CC3)[nH]c2c1	0.46
O=C(Nc1cc(Cl)ccc1O)C1CC(c2ccccc2O)=NO1 (centres undefined)	0.76
Cc1cc(C(=O)COC(=O)Cc2ccc(Br)cc2)c(C)n1C	1.18
O=C(Cn1cnc2cc([N+](=O)[O-])ccc2c1=O)N1CCN(S(=O)(=O)c2ccccc2)CC1	1.04
COC(=O)c1ccc(C(=S)NCC2(N(C)C)CCCCC2)cc1	1.66
CCCC(NC(=O)c1ccc(Br)o1)c1nc2ccccc2[nH]1 (centres undefined)	0.79
CC(C(=O)Nc1ccc(C#N)cc1)N(C)CC(=O)Nc1cccc(F)c1 (centres undefined)	0.77
O=C(CSc1ccc([N+](=O)[O-])cc1)Nc1ccccc1N1CCOCC1	0.69
Cc1ccc(NC2=CC(=O)CC(C)(C)C2)cc1Cl	1.21
Cc1cc(NC(=O)COC(=O)C(C)Oc2ccc(Cl)cc2Cl)no1 (centres undefined)	1.63
CCN(Cc1ccccc1)C(=O)COC(=O)c1cnc(C)cn1	1.58

----------
Applied Conditions: buffer; pH 7.4; 200.0 µM
# solubility kinetic per record follows
Readout Label: solubility kinetic

Chem Smiles	Readout Label	Test Value
CCOC(=O)c1nc2ccccc2c(=O)[nH]1	solubility kinetic	> 32.7 µg/mL
Cc1ccc(C(=O)N2CCC(C(=O)NCc3ccco3)CC2)cc1	solubility kinetic	> 49 µg/mL
COc1cc(-n2c(C)nc3cccnc32)c(Cl)cc1C(=O)O	solubility kinetic	> 47.7 µg/mL
CCCn1nc(C(=O)NC2CCCC2)c2ccccc2c1=O	solubility kinetic	> 44.9 µg/mL
CN(C)S(=O)(=O)c1cccc(C(=O)OCC(=O)N2CCCC2=O)c1	solubility kinetic	> 53.2 µg/mL
O=C(Nc1ccncc1)OCc1ccccc1	solubility kinetic	> 34.2 µg/mL

----------
# solubility kinetic per record follows
Applied Conditions: buffer; pH 7.4; 200.0 µM
Readout Label: solubility kinetic

Compound	Test Value
C#CCOn1c(-n2nc(C)cc2C)nc2ccccc2c1=O	> 44.1 µg/mL
CC1CN(C(=O)/C(=C/c2ccco2)NC(=O)c2ccccc2)CC(C)O1 (stereo unspecified)	> 53.2 µg/mL
Cc1cc(NC(=O)c2sc3ccccc3c2O)no1	> 41.1 µg/mL
Cc1[nH]c(=O)[nH]c(=O)c1NC(=O)c1ccc(OC(C)C)cc1	> 45.5 µg/mL
CN1CCN(C(=O)C23CCC(C)(C(=O)C2Br)C3(C)C)CC1 (stereo unspecified)	> 53.6 µg/mL
CCN(C(=O)COC(=O)C1=COCCO1)c1ccccc1	> 43.7 µg/mL
O=C1COc2ccc(S(=O)(=O)N3CCCCCC3)cc2N1	> 46.6 µg/mL
OCCN(Cc1ccccc1)Cc1nc(CC2CC2)no1	> 43.1 µg/mL
CC(C)(C)c1ccc(Oc2ccc(NC(=O)c3ccco3)cn2)cc1	< 0.4 µg/mL
CC(=O)c1cccc(-n2c(CCC(=O)O)ccc2-c2ccccc2)c1	> 50 µg/mL
CC(=O)Nc1ccc(OCC(O)Cn2cncn2)cc1 (stereo unspecified)	> 41.4 µg/mL

----------
Applied Conditions: buffer; pH 7.4; 200.0 µM
# solubility kinetic per record follows

Compound	solubility kinetic
O=C(CN1CCOCC1)Nc1ccc(Cl)cc1	> 38.2 µg/mL
CC(C(N)=O)N1C(=O)NC2(CCCc3ccccc32)C1=O (stereo not given)	> 43.1 µg/mL
O=C(/C=C/c1ccco1)N(Cc1ccc(F)cc1)C1CCS(=O)(=O)C1 (stereo not given)	> 54.5 µg/mL
O=C(NC(=S)NNC(=O)c1ccco1)c1ccc(F)cc1	> 46.1 µg/mL
O=C1/C(=C/c2cccnc2)N2CCC1CC2	> 32.1 µg/mL
OC(CNC1Cc2ccccc2C1)c1ccccc1 (stereo not given)	> 38 µg/mL
O=C(O)C1CCCN(C(=O)c2cccc3ccccc23)C1 (stereo not given)	> 42.5 µg/mL
CCO/C([O-])=N/c1c[n+](N2CCOCC2)no1	> 36.3 µg/mL
COCCNc1cnn(-c2ccccc2)c(=O)c1Cl	> 42 µg/mL
O=C(O)C(=O)O.OC(CN1CCCC1)Cn1ccc2ccccc21 (stereo not given)	> 50.2 µg/mL

----------
# solubility kinetic per record follows
Applied Conditions: buffer; pH 7.4; 200.0 µM
Readout Label: solubility kinetic

Compound	Test Value
COc1ccc(N2CC2c2ccncc2)cc1 (stereo not given)	> 0.0339 mg/mL
Cc1ccc(NS(=O)(=O)c2ccc(-c3csc(C)n3)s2)c(C)c1	< 0.0004 mg/mL
C=C1SC(Nc2c(C)cccc2C)=NC12CCCCC2	< 0.0003 mg/mL
CCC(=O)Nc1cc(C(=O)O)ccc1Sc1ccc(Cl)cc1	> 0.0504 mg/mL
O=C(Cc1ccccc1)Nc1nccs1	> 0.0327 mg/mL
Nc1nc(-c2ccccc2)c(-c2ccccc2)o1	> 0.0354 mg/mL
Cc1cc(=O)[nH]c(SCC(=O)NCC2CCCCC2)c1C#N	> 0.0479 mg/mL
CCc1noc(C)c1C(=O)Nc1ccc(C#N)cc1	> 0.0383 mg/mL
O=C(OCc1ccc([N+](=O)[O-])cc1)C1CC(=O)N(Cc2ccccc2)C1 (stereo not given)	> 0.0532 mg/mL
Cc1cc(NC(=O)COC(=O)c2cccc(O)c2)no1	> 0.0414 mg/mL
